Recorded values, source BigSolDB 2.1.

Conditions: in ethanol, 323.15 K
value type: solubility (mole fraction)
# output: bare number, no unit

Give solubility (mole fraction) for "CCOc1ccccc1C(N)=O"
0.0472

----------
Conditions: in methanol, 293.15 K
value type: solubility (mole fraction)
# output: bare number, no unit

Give solubility (mole fraction) for "CCOc1ccccc1C(N)=O"
0.016

----------
Conditions: in methanol, 298.15 K
value type: solubility (mole fraction)
# output: bare number, no unit

Give solubility (mole fraction) for "CCOc1ccccc1C(N)=O"
0.02

----------
Settings: in acetonitrile, 313.15 K
value type: solubility (mole fraction)
# output: bare number, no unit

Give solubility (mole fraction) for "CCOc1ccccc1C(N)=O"
0.022
